Target: T1, EsCas13d, nuclease-dead (Eubacterium siraeum, UniProt B0MS50, R295A;H300A;R849A;H854A)
T1 sequence: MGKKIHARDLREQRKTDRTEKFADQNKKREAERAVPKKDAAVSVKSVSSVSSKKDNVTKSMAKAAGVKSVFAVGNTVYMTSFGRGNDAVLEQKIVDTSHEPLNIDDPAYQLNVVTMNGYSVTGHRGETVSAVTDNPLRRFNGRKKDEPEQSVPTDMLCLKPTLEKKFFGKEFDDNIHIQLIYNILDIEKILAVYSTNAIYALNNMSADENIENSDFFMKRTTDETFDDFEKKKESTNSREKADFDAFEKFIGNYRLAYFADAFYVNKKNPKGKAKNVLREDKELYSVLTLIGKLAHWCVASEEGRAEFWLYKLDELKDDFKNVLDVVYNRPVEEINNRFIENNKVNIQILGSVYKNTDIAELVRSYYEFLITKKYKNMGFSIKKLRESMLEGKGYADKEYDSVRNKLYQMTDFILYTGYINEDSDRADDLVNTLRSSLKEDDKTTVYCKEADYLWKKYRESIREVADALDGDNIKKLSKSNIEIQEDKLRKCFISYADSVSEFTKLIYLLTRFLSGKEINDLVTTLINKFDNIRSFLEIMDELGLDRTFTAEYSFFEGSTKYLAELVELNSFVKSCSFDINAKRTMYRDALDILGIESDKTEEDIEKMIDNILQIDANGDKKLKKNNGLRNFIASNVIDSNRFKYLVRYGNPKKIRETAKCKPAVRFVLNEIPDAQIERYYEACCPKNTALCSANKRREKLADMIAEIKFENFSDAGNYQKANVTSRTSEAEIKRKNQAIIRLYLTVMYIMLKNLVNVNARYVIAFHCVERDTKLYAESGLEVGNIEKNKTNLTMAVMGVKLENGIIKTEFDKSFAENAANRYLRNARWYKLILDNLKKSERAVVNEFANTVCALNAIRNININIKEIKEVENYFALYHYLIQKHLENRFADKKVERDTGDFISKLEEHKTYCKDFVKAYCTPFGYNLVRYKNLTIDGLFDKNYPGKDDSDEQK
Experiment: crRNA (strand 1, pre-loaded); Mg2+; 40 mM Tris-HCl pH 7.5, 150 mM NaCl, 6 mM MgCl2, 1 mM DTT, 0.1% Tween-20, 0.2 mg/ml BSA; 25 C; 10 min per concentration, then washed
Conditions: tags: His6-TwinStrep-SUMO cleaved; N-terminal SNAP kept (SNAP-Surface 488); label: 3' end held by stalled T7 RNA polymerase
pKd: −log10 of the molar value.

[
  {
    "Binder": "target 2 MT 5'PFS GAC 3'PFS AAC (mixed) RNA 1: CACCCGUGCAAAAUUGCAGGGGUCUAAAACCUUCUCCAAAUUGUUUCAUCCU RNA 2: GGGAAUGGAUCCACAUCUACGAAUUCGACAGGAUGAAACAAUUUGGAGAAGAACAGAUCGGAAGAGCACACGU",
    "pKd": 7.94
  },
  {
    "Binder": "target 1 MT 5'PFS GUG 3'PFS UCA (mixed) RNA 1: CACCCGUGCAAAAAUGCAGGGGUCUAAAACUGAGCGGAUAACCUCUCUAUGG RNA 2: GGGAAUGGAUCCACAUCUACGAAUUCGUGCCAUAGAGAGGUUAUCCGCUCAUCAAGAUCGGAAGAGCACACGU",
    "pKd": 7.84
  },
  {
    "Binder": "target 1 insC 3' of 9,insG 3' of 6 (mixed) RNA 1: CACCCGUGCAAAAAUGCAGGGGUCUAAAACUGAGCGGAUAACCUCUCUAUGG RNA 2: GGGAAUGGAUCCACAUCUACGAAUUCGUACCAUAGAGAGGUUACUCCGGCUCACCGAGAUCGGAAGAGCACACGU",
    "pKd": 7.84
  }
]
